Value source: PubChem BioAssay

assay: small-molecule microarray binders of probe aWnt5a, primary screen, biochemical, biotinylated probe, 635/667 nm fluorescence (AID 1113); conditions: higher = more signal;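 note: score merges 667 nm fluorescence intensity with signal-to-noise per printed feature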
Label scheme for composite z-score: lower than -0.08 is not satisfied, -0.08 and above is satisfied.

Request: Reported composite z-score at or above -0.08? `CCc1cc2c(nc1CC)CCN(CCC(C)=NO[C@@H](C)c1cc(-c3c(C)cc(C)cc3C)no1)C2`
Result: not satisfied

Request: Reported composite z-score at or above -0.08? `CCN1C(=O)[C@H]2[C@H]3[C@H](O)[C@H](O)CC(=NOCc4ccccc4)[C@H]3CC[C@H]2C1=O`
Result: not satisfied

Request: Reported composite z-score at or above -0.08? `CC(=O)OC[C@H]1O[C@H](CCON=C(C)CCN2CCc3nc(-c4ccccc4)c(-c4ccccc4)cc3C2)C=C[C@@H]1OC(C)=O`
Result: satisfied

Request: Reported composite z-score at or above -0.08? `COCC(=C=CC[C@@H](O)c1ccccc1OCCO)CCO`
Result: not satisfied

Request: Reported composite z-score at or above -0.08? `COc1ccc(O[C@H]2C=C[C@@H](c3ccccc3)O[C@@H]2COC(=O)CCC(C)=NOC[C@@H](C)[C@H](OCc2ccccc2)C(C)C)cc1`
Result: satisfied

Request: Reported composite z-score at or above -0.08? `CO[C@H]1COC(=O)CC=C[C@H](C)[C@@H](NS(=O)(=O)c2ccc(C)cc2)COC(=O)CC=C[C@@H]1C`
Result: satisfied

Request: Reported composite z-score at or above -0.08? O=C1C2C=CC(C(O)c3ccc([N+](=O)[O-])cc3)N(Nc3ccc([N+](=O)[O-])cc3)C2C(=O)N1c1ccccc1 (stereo not given)
Result: satisfied

Request: Reported composite z-score at or above -0.08? `CC(=O)OC[C@H]1O[C@@H](ON=C[C@@H](C)[C@H](OCc2ccccc2)C(C)C)[C@H](OC(C)=O)[C@@H](OC(C)=O)[C@@H]1OC(C)=O`
Result: satisfied

Request: Reported composite z-score at or above -0.08? `C#C[C@@H]1Oc2ccccc2S(=O)(=O)N2CCC[C@H]12`
Result: satisfied

Request: Reported composite z-score at or above -0.08? `COC(=O)CC=C[C@@H](C)[C@@H](C=NO[C@H](C)c1cn([C@@H]2COC[C@H]2O)nn1)OC`
Result: satisfied

Request: Reported composite z-score at or above -0.08? `O=C1[C@H]2[C@H]3[C@H](O)[C@H](O)CC(=NOCc4ccccc4)[C@@H]3CC[C@H]2C(=O)N1Cc1ccccc1`
Result: not satisfied

Request: Reported composite z-score at or above -0.08? `O=C1[C@H]2[C@H]3[C@H](O)[C@H](O)CC(=NOC[C@@H](O)COCc4ccco4)[C@H]3CC[C@H]2C(=O)N1Cc1ccc2c(c1)OCO2`
Result: not satisfied

Request: Reported composite z-score at or above -0.08? `Cc1cc(C)c(-c2cc([C@H](C)ON=C3[C@H]4CCn5c(=O)n(-c6ccccc6)c(=O)n5[C@H]4[C@H](O)[C@@H]4O[C@H]34)on2)c(C)c1`
Result: satisfied

Request: Reported composite z-score at or above -0.08? `CCOC(=O)CCN1C(=O)[C@H]2[C@H]3[C@H](O)[C@H](O)CC(=NOC[C@@H](O)COCc4ccco4)[C@@H]3CC[C@H]2C1=O`
Result: satisfied

Request: Reported composite z-score at or above -0.08? `C[C@@H]1C=CCC(=O)OC[C@H](C)C(=O)N[C@@H](C)C(=O)OC1`
Result: satisfied

Request: Reported composite z-score at or above -0.08? `CO[C@H]1O[C@H](CO)[C@@H](OC(=O)Nc2ccc(C#N)cc2)[C@H](OC(=O)c2cc3ccccc3[nH]2)[C@H]1OC(=O)c1cc2ccccc2[nH]1`
Result: not satisfied

Request: Reported composite z-score at or above -0.08? `CC(CCN1CCc2nc(-c3ccccc3)c(-c3ccccc3)cc2C1)=NOC[C@@H](C)[C@H](OCc1ccccc1)C(C)C`
Result: not satisfied

Request: Reported composite z-score at or above -0.08? `Cc1ccc(S(=O)(=O)N[C@@H]2COC(=O)[C@H](C)COC(=O)CC=C[C@H]2C)cc1`
Result: not satisfied

Request: Reported composite z-score at or above -0.08? `C[C@@H](c1ccccc1)N1C(=O)[C@H]2[C@H]3[C@H](O)[C@H](O)CC(=NNC(=O)OCc4ccccc4)[C@H]3CC[C@H]2C1=O`
Result: satisfied

Request: Reported composite z-score at or above -0.08? `COC(=O)CC=C[C@@H](C)[C@H](OC)c1ccccc1Br`
Result: not satisfied

Request: Reported composite z-score at or above -0.08? `CC(C)CON=C1C[C@@H](O)[C@@H](O)[C@@H]2[C@@H]3C(=O)N([C@@H](C)c4ccccc4)C(=O)[C@@H]3CC[C@H]12`
Result: not satisfied

Request: Reported composite z-score at or above -0.08? `CC(C)[C@H](NC(=O)OC(C)(C)C)[C@@H](O)CC(=O)OC(C)(C)C`
Result: not satisfied

Request: Reported composite z-score at or above -0.08? `CO[C@H]1COC(=O)[C@H](C)COC(=O)CC=C[C@@H](C)[C@H](OC)COC(=O)CC=C[C@@H]1C`
Result: not satisfied

Request: Reported composite z-score at or above -0.08? `O=C(NN=C1C[C@@H](O)[C@@H](O)[C@@H]2[C@@H]3C(=O)N(c4cccc(Oc5ccccc5)c4)C(=O)[C@@H]3CC[C@@H]12)OCc1ccccc1`
Result: not satisfied

Request: Reported composite z-score at or above -0.08? `COC(=O)[C@]1(CO)N=C(c2ccc(OCCCO)cc2)O[C@@H]1c1ccccc1N=[N+]=[N-]`
Result: satisfied

Request: Reported composite z-score at or above -0.08? `O=C1[C@H]2[C@H]3[C@H](O)[C@H](O)CC(=NO[C@@H]4O[C@H](CO)[C@@H](O)[C@H](O)[C@H]4O)[C@H]3CC[C@H]2C(=O)N1Cc1ccc2c(c1)OCO2`
Result: not satisfied

Request: Reported composite z-score at or above -0.08? O=C1CCCC2OC12C(O)CCc1ccccc1 (stereo not given)
Result: satisfied

Request: Reported composite z-score at or above -0.08? `Cn1c(=O)n2n(c1=O)[C@H]1[C@H](O)[C@@H]3O[C@@H]3C(=NOC[C@@H](O)COCc3ccco3)[C@H]1CC2`
Result: not satisfied

Request: Reported composite z-score at or above -0.08? `CCOC(=O)C[C@H]1[C@H](OC(=O)c2ccc(C(=O)c3ccccc3)cc2)[C@@H](NC(=O)c2ccc(-c3ccccc3)cc2)c2cc(OCCCO)ccc2N1C(=O)c1ccc2ccccc2n1`
Result: satisfied
